Measured values drawn from patent US20230286970A1 for this set.

The listing below reports IC50 for compounds tested on HDAC8 (Homo sapiens (Human)).
Sequence (Q9BY41 whole entry): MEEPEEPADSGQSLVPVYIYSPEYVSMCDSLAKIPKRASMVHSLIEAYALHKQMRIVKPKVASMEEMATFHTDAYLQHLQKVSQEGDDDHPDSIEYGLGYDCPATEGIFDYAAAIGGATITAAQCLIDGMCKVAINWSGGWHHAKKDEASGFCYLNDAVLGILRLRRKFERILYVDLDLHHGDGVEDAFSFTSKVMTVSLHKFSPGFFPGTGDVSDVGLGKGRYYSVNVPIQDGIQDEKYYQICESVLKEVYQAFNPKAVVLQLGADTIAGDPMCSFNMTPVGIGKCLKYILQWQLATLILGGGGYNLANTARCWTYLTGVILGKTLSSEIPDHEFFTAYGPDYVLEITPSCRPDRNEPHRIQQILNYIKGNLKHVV
assay endpoint: IC50

> print(dat)
                                 mol.smiles  assay.endpoint  data.value
1  Nc1ccc(-c2cn(Cc3ccc(-c4nnc(C(F)F)o4)cn3)nn2)cn1            IC50    > 200 µM
2  Nc1ccc(-c2cnn(Cc3ccc(-c4nnc(C(F)F)o4)cn3)c2)cn1            IC50      197 µM
3  Nc1ccc(-c2cn(Cc3ccc(-c4nnc(C(F)F)o4)cn3)cn2)cn1            IC50    > 200 µM
4  Nc1nc2cc(-c3cn(Cc4ccc(-c5nnc(C(F)F)o5)cc4)nn3)ccc2[nH]1            IC50    > 200 µM
5  Cn1c(N)nc2cc(-c3cn(Cc4ccc(-c5nnc(C(F)F)o5)cc4)nn3)ccc21            IC50    0.565 µM
6  Cn1c(N)nc2cc(-c3cn(Cc4ccc(-c5nnc(C(F)F)o5)cn4)nn3)ccc21            IC50    > 200 µM
7  Nc1ccc(-c2cn(Cc3ccc(-c4nnc(C(F)F)o4)c(F)c3F)nn2)cn1            IC50    > 200 µM
8  O=C(Nc1cc(-c2nnn(Cc3ccc(-c4nnc(C(F)F)o4)cn3)n2)ccc1O)N1CCOCC1            IC50    > 200 µM
9  Nc1nc2ccc(-c3cn(Cc4ccc(-c5nnc(C(F)F)o5)cn4)nn3)cc2s1            IC50    > 200 µM

* * *

Measured pIC50 values are reported for all entries that follow.
tested target: recombinant human HDAC1 (Homo sapiens (Human))
Sequence (Q13547 whole entry): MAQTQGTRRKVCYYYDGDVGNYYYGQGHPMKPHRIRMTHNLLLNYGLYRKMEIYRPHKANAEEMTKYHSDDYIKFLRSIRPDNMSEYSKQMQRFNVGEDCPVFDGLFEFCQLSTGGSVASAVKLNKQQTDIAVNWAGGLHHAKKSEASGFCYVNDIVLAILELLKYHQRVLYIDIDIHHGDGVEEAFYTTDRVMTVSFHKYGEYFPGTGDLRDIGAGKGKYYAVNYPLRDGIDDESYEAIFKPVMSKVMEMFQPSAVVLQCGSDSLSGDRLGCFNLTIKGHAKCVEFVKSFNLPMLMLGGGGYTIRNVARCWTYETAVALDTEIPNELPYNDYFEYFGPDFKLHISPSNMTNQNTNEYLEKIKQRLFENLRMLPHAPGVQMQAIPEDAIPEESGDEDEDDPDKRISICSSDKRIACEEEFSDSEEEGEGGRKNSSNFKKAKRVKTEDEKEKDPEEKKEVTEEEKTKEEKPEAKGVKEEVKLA
procedure details: Enzymatic screening, HDAC1 inhibition (fluorogenic FdL_G substrate)
pIC50: −log10 of the molar value.
assay endpoint: pIC50

> print(dat)
                                    compound  assay.endpoint  data.value
 1  Cn1c(N)nc2cc(-c3cn(Cc4ccc(-c5nnc(C(F)F)o5)cn4)cn3)ccc21 [compound 328]           pIC50      < 3.00
 2  FC(F)c1nnc(-c2ccc(Cn3cnc(-c4ccc(NC5=NCCN5)cc4)c3)nc2)o1 [compound 20]           pIC50      < 3.70
 3  CNc1ncc2cc(-c3cn(Cc4c(F)cc(-c5nnc(C(F)F)o5)cc4F)nn3)ccc2n1 [compound 392]           pIC50        3.00
 4  Nc1ccc(-c2nc(Cc3c(F)cc(-c4nnc(C(F)F)o4)cc3F)no2)cn1 [compound 141]           pIC50      < 3.70
 5  CC(c1ccc(-c2nnc(C(F)F)o2)cc1F)n1cc(-c2cccc(NC(=O)N3CCOCC3)c2)nn1 (stereo not shown) [compound 165]           pIC50      < 3.70
 6  FC(F)c1nnc(-c2ccc(Cn3nnc(-c4cccc(-c5nc6c([nH]5)CNCC6)c4)n3)c(Cl)c2)o1 [compound 365]           pIC50      < 3.00
 7  Cn1c(N)nc2cc(-c3cn(Cc4ccc(-c5nnc(C(F)F)o5)cc4F)nn3)ccc21 [compound 378]           pIC50        3.70
 8  [2H]C([2H])(c1cc(F)c(-c2nnc(C(F)F)o2)cc1F)n1cc(-c2ccc(N)nc2)nn1 [compound 381]           pIC50      < 3.00
 9  O=C(Nc1ccc(-c2cn(Cc3ncc(-c4nnc(C(F)F)o4)cn3)nn2)cn1)C(F)F [Compd. 88]           pIC50      < 3.70
10  Nc1ccc(-c2cn(Cc3ccc(-c4nnc(C(F)F)o4)cn3)cn2)cn1 [compound 12]           pIC50      < 3.70
11  CC(=O)N(Cc1ccco1)c1cccc(-c2cn(Cc3c(F)cc(-c4nnc(C(F)F)o4)cc3F)nn2)c1 [compound 183]           pIC50      < 3.70
12  CN1CCC(NC(=O)c2ccc(-c3nnn(Cc4ccc(-c5nnc(C(F)F)o5)cc4)n3)cc2)CC1 [compound 232]           pIC50      < 3.70
13  Nc1ccc(-c2cn(Cc3ccc(-c4nnc(C(F)F)o4)nn3)nn2)cn1 [compound 198]           pIC50      < 3.70
14  Cn1c(N)nc2cc(-c3nnn(Cc4ccc(-c5nnc(C(F)F)o5)c(F)c4)n3)ccc21 [compound 373]           pIC50      < 3.00
15  FC(F)c1nnc(-c2ccc(Cn3cc(-c4ccc5cn[nH]c5c4)nn3)cc2)o1 [compound 222]           pIC50      < 3.70
16  Cc1ncccc1-c1cn(Cc2ccc(-c3nnc(C(F)F)o3)cn2)nn1 [compound 115]           pIC50      < 3.70
17  FC(F)c1nnc(-c2ccc(Cn3nnnc3-c3ncccn3)cc2)o1 [compound 287]           pIC50      < 3.70
18  Fc1cc(Cn2nnc(-c3cccc(-c4nc5c([nH]4)CNCC5)c3)n2)ccc1-c1nnc(C(F)F)o1 [compound 364]           pIC50        3.24
19  CN1CCN(c2cccc(-c3nnn(Cc4ccc(-c5nnc(C(F)F)o5)cc4)n3)c2)CC1 [compound 58]           pIC50      < 3.70
20  O=C(Nc1cccc(-c2nnn(Cc3c(F)cc(-c4nnc(C(F)F)o4)cc3F)n2)c1)N1CCOCC1 [compound 98]           pIC50      < 3.70
21  Fc1cc(-c2nnc(C(F)F)o2)ccc1Cn1nnc(-c2cccc(-c3nc4c([nH]3)CCNC4)c2)n1 [compound 354]           pIC50        3.74
22  CNc1ccc2cc(-c3nnn(Cc4ccc(-c5nnc(C(F)F)o5)cc4F)n3)ccc2n1 [compound 401]           pIC50        3.00
23  Nc1nc2ccc(-c3cn(Cc4ccc(-c5nnc(C(F)F)o5)c(F)c4)nn3)cc2s1 [compound 347]           pIC50      < 3.00
24  CC(=O)Nc1cccc(-c2cn(Cc3c(F)cc(-c4nnc(C(F)F)o4)cc3F)nn2)c1 [compound 70]           pIC50      < 3.70
25  Cn1c(N)nc2cc(-c3cn(Cc4ccc(-c5nnc(C(F)F)o5)c(F)c4)nn3)ccc21 [compound 346]           pIC50      < 3.00
26  CN1CCN(C(=O)Nc2cccc(-c3cn(Cc4c(F)cc(-c5nnc(C(F)F)o5)cc4F)nn3)c2)CC1 [compound 63]           pIC50      < 3.70
27  Nc1nc2cc(-c3cnn(Cc4ccc(-c5nnc(C(F)F)o5)cn4)c3)ccc2[nH]1 [compound 331]           pIC50      < 3.00
28  [2H]C([2H])(c1ccc(-c2nnc(C(F)F)o2)cn1)n1cc(-c2ccc(N)nc2)nn1 [compound 362]           pIC50      < 3.00
29  CC(C)(C)OC(=O)N1CCc2[nH]c(-c3cccc(-c4nnn(Cc5ccc(-c6nnc(C(F)F)o6)cc5)n4)c3)nc2C1 [compound 272]           pIC50      < 3.70
30  O=C1NCc2ccc(-c3nnnn3Cc3ncc(-c4nnc(C(F)F)o4)cn3)cc21 [compound 298]           pIC50      < 3.70
31  FC(F)c1nnc(-c2ccc(Cn3nnc(-c4cccc(-c5cnn6c5CNCC6)c4)n3)cc2)o1 [compound 111]           pIC50      < 3.70

* * *

residual percentage in RAT S9 FRACTION values for the compounds below.
procedure details: Stability to Phase I metabolism in rat S9 liver fraction
experimental conditions: after 90 minutes, 37° C.
assay endpoint: residual percentage in RAT S9 FRACTION

> print(dat)
                                    compound  data.value
 1  COc1ncccc1-c1cn(Cc2ccc(-c3nnc(C(F)F)o3)cc2)nn1 [compound 131]         58%
 2  O=C1Nc2ccc(-c3cn(Cc4ccc(-c5nnc(C(F)F)o5)cn4)nn3)cc2C12CCNC2 (stereo not drawn) [compound 28]         97%
 3  FC(F)c1nnc(-c2ccc(Cn3nnc(-c4csc5ccccc45)n3)cc2)o1 [compound 207]          0%
 4  CC(c1ccc(-c2nnc(C(F)F)o2)cc1)n1cc(-c2ccc(N)nc2)nn1 (stereo not drawn) [Compd. 117]         71%
 5  Nc1ncc(-c2nnn(Cc3ccc(-c4nnc(C(F)F)o4)cc3)n2)cn1 [compound 79]         78%
 6  NC(=O)c1cccc(-c2nnn(Cc3ccc(-c4nnc(C(F)F)o4)cc3)n2)c1 [compound 75]         90%
 7  O=C1NCc2ccc(-c3nnn(Cc4ccc(-c5nnc(C(F)F)o5)cn4)n3)cc21 [compound 4]         77%
 8  COc1ncc(NCc2ccc(-c3cn(Cc4ccc(-c5nnc(C(F)F)o5)cc4)nn3)cc2)cc1C(N)=O [compound 138]         66%
 9  FC(F)c1nnc(-c2ccc(Cn3cc(-c4ccc(NC5=NCCN5)cc4)cn3)nc2)o1 [compd. 270]         79%
10  Nc1cncc(-c2nnn(Cc3ccc(-c4nnc(C(F)F)o4)cc3)n2)c1 [compound 90]         13%
11  O=C1Nc2ccc(-c3cn(Cc4ccc(-c5nnc(C(F)F)o5)cn4)nn3)cc2C12CCNC2 (single isomer, unassigned) [compound 274]         97%
12  O=C1Nc2ccc(-c3cn(Cc4ccc(-c5nnc(C(F)F)o5)cn4)nn3)cc2NC12CCNCC2 [compound 36]         94%
13  Nc1nc2ccc(-c3cn(Cc4ccc(-c5nnc(C(F)F)o5)cn4)nn3)cc2s1 [Compd. 1]         96%
14  NC(=O)c1cc(-c2nnn(Cc3ccc(-c4nnc(C(F)F)o4)cc3)n2)cnc1N [compound 76]         89%
15  C[C@H](c1ccc(-c2nnc(C(F)F)o2)cn1)n1cc(-c2ccc(N)nc2)nn1 [Compd. 32]         91%
16  FC(F)c1nnc(-c2ccc(Cn3cc(-c4ccc5[nH]c(N6CCOCC6)nc5c4)nn3)cc2)o1 [Compd. 174]         72%
17  CN1CCC(NC(=O)c2cccc(-c3nnn(Cc4ccc(-c5nnc(C(F)F)o5)cc4)n3)c2)CC1 [compound 80]         46%
18  FC(F)c1nnc(-c2ccc(Cn3cnc(-c4ccc(NC5=NCCN5)cc4)c3)nc2)o1 [compound 20]         93%
19  Cc1ncccc1-c1cn(Cc2c(F)cc(-c3nnc(C(F)F)o3)cc2F)nn1 [compound 105]         71%
20  O=C1NCc2ccc(-c3nnn(Cc4c(F)cc(-c5nnc(C(F)F)o5)cc4F)n3)cc21 [compound 57]         86%
21  NC(=O)c1ccc(-c2nnn(Cc3ccc(-c4nnc(C(F)F)o4)cc3)n2)cc1 [compound 116]         71%
22  COc1ncccc1-c1cn(Cc2ccc(-c3nnc(C(F)F)o3)cn2)nn1 [compound 53]         91%
23  FC(F)c1nnc(-c2ccc(Cn3cnc(-c4ccc(NC5=NCCN5)cc4)c3)cc2)o1 [compound 22]         98%
24  O=C(Nc1ccc(-c2nnc(Cc3ccc(-c4nnc(C(F)F)o4)cn3)s2)cn1)C(F)F [Compd. 102]         56%
25  O=C(Nc1cccc(-c2cn(Cc3c(F)cc(-c4nnc(C(F)F)o4)cc3F)nn2)c1)N1CCOCC1 [compound 78]         78%
26  Cn1c(N)nc2cc(-c3cn(Cc4ccc(-c5nnc(C(F)F)o5)cc4)nn3)ccc21 [Compd. 23]         96%
27  NC(=O)c1cccc(-c2nnn(Cc3ccc(-c4nnc(C(F)F)o4)c(F)c3)n2)c1 [compound 89]         98%
28  COc1ccc(-c2nnn(Cc3ccc(-c4nnc(C(F)F)o4)cc3)n2)cc1OC [compound 128]         13%
29  CC(c1ccc(-c2nnc(C(F)F)o2)cn1)n1cc(-c2ccc(N)nc2)nn1 (stereo not drawn) [Compd. 59]         97%
30  CCCCC(c1ccc(-c2nnc(C(F)F)o2)cc1)n1cc(-c2ccc(N)nc2)nn1 (stereo not drawn) [compound 235]         63%
31  CC(c1ccc(-c2nnc(C(F)F)o2)cc1F)n1cc(-c2ccc(N)nc2)nn1 (stereo not drawn) [compound 185]         69%
32  CC(=O)Nc1cc(-c2nnn(Cc3ccc(-c4nnc(C(F)F)o4)cc3)n2)cnc1C [compound 133]         78%
33  Nc1ccc(-c2cn(Cc3ccc(-c4nnc(C(F)F)o4)c(F)c3)nn2)cn1 [compound 15]         79%
